Each recorded value in this set is attributed to patent US20010036944A1.

experimental.target: recombinant human ETAR (HETA) (Homo sapiens)
Construct: expressed in transfected cells; host or cells: Ltk- cells (membrane preparation)
experimental.details: Radioligand binding, [125I]ET-1 to membranes of Ltk- cells expressing recombinant human ETAR (HETA)
experimental.context: [125I]ET-1 binding, human ETA, Ltk- cell membranes; read-out: HETA (IC50)
pIC50: −log10 of the molar value.
measured.property: pIC50

Example entries begin here.
compound: COc1cc(C2=C(C(=O)[O-])N(c3c(C)cccc3C)S(=O)(=O)c3ccccc32)cc2c1OCO2.[Na+] [Example 6, monosodium salt]
pIC50: 8.40
--
compound: COc1ccc(N2C(C(=O)O)=C(c3ccc4c(c3)OCO4)c3ccccc3S2(=O)=O)c(Cl)c1
pIC50: 7.68

(A) COc1cc(C2=C(C(=O)O)N(c3ccccc3Cc3ccccc3)S(=O)(=O)c3ccccc32)cc2c1OCO2
(B) CCc1ccccc1N1C(C(=O)O)=C(c2ccc3c(c2)OCO3)c2ccccc2S1(=O)=O
(C) COc1cc(OC)cc(C2=C(C(=O)O)N(c3ccccc3Cl)S(=O)(=O)c3ccccc32)c1
(D) O=C(O)C1=C(c2ccc3c(c2)OCO3)c2ccccc2S(=O)(=O)N1c1ccccc1Cc1ccccc1
(E) COc1cc(C2=C(C(=O)O)N(c3ccccc3C)S(=O)(=O)c3ccccc32)cc2c1OCO2
Put the items in order so that reported pIC50 rises from first to last. Please reply with the labels ordered as requested. Many thanks. D, B, E, A, C

(P) COc1cc(OC)cc(C2=C(C(=O)O)N(c3ccccc3C(F)(F)F)S(=O)(=O)c3ccccc32)c1
(Q) O=C(O)C1=C(c2ccc3c(c2)OCO3)c2ccccc2S(=O)(=O)N1c1ccc(Cl)cc1Cl
Among P and Q , which shows a numerically higher pIC50 result? Reply briefly: the label of your chosen item. P
(P: 8.52, Q: 7.30)

(I) Cc1c(Cl)cccc1N1C(C(=O)O)=C(c2ccc3c(c2)OCO3)c2ccccc2S1(=O)=O
(II) COc1cc(C2=C(C(=O)O)N(c3ccccc3Cl)S(=O)(=O)c3ccccc32)cc2c1OCO2
Among I and II , which shows a numerically higher pIC50 result? Reply briefly: the label of your chosen item. II
(II: 8.52, I: 7.52)

(P) O=C(O)C1=C(c2ccc3c(c2)OCO3)c2ccccc2S(=O)(=O)N1c1ccccc1-n1cccc1
(Q) COc1cc(OC)cc(C2=C(C(=O)O)N(c3ccccc3Br)S(=O)(=O)c3ccccc32)c1
Please indicate which item has the smaller measured pIC50: P versus Q Reply briefly: the label of your chosen item. P
(P: 7.40, Q: 8.52)

====

experimental.details: Pharmacokinetics in rat
experimental.context: in vivo, read-out: terminal elimination t1/2 (converted)
Counter-ions that a name gives are not always drawn.
measured.property: half-life (h)
# output: bare number, implied unit h

What measured half-life goes with CCc1cc(C2=C(C(=O)O)N(c3ccccc3C(F)(F)F)S(=O)(=O)c3ccccc32)cc2c1OCO2 [Example 10, sodium salt] ? 8.5

====

System: ETA, rabbit femoral artery
experimental.details: Antagonism of ET-1 stimulated vasoconstriction (VERAA) in the rabbit femoral artery (ETA)
experimental.context: ET-1 stimulated vasoconstriction, rabbit femoral artery
Excerpt: In Vitro Antagonism of ET-1 Stimulated Vasoconstriction (VERAA) in the Rabbit Femoral Arterv (ETA) and Sarafotoxin 6C Stimulated Vasoconstriction in the Rabbit Pulmonarv Artery (ETB) Male New Zealand rabbits were killed by cervical dislocation and exsanguination. Femoral and pulmonary arteries were isolated, cleaned of connective tissue, and cut into 4mm rings. […]
Where a name gives a salt, the structure may show the parent alone.
measured.property: VERAA (pA2)
// print number alone

compound: COc1cc(OC)cc(C2=C(C(=O)O)N(c3ccccc3C(F)(F)F)S(=O)(=O)c3ccccc32)c1
experimental.target: ETA, rabbit femoral artery
VERAA (pA2): 6.6
--
compound: COc1cc(C2=C(C(=O)O)N(c3ccccc3Br)S(=O)(=O)c3ccccc32)cc2c1OCO2 [Example 9, monosodium salt]
experimental.target: ETA, rabbit femoral artery
VERAA (pA2): 6.9
--
compound: COc1cc(OC)cc(C2=C(C(=O)O)N(c3ccccc3Cl)S(=O)(=O)c3ccccc32)c1
experimental.target: ETA, rabbit femoral artery
VERAA (pA2): 6.6

What measured VERAA (pA2) goes with COc1cc(C2=C(C(=O)[O-])N(c3c(C)cccc3C)S(=O)(=O)c3ccccc32)cc2c1OCO2.[Na+] ? 7.1

What do you get for CCc1cc(C2=C(C(=O)O)N(c3ccccc3C(F)(F)F)S(=O)(=O)c3ccccc32)cc2c1OCO2 [Example 10, sodium salt] ? 7.7

What do you get for O=C(O)C1=C(c2ccc3c(c2)OCO3)c2ccccc2S(=O)(=O)N1c1ccccc1C(F)(F)F ? 6.6

What do you get for O=C(O)C1=C(c2ccc3c(c2)OCO3)c2ccccc2S(=O)(=O)N1c1ccccc1Cl ? 5.8

====

experimental.details: Pharmacokinetics in rat
experimental.context: in vivo, oral
Where a name gives a salt, the structure may show the parent alone.
measured.property: bioavailability (%)
# output: bare number, implied unit %

What measured bioavailability goes with CCc1cc(C2=C(C(=O)O)N(c3ccccc3C(F)(F)F)S(=O)(=O)c3ccccc32)cc2c1OCO2 [Example 10, sodium salt] ? 77

====

Entries and their VERAA (pA2)
Test system: ETA, rabbit femoral artery
experimental.details: Antagonism of ET-1 stimulated vasoconstriction (VERAA) in the rabbit femoral artery (ETA)
experimental.context: ET-1 stimulated vasoconstriction, rabbit femoral artery
// print number alone

Example entries begin here.
sample.smiles: O=C(O)C1=C(c2ccc3c(c2)OCO3)c2ccccc2S(=O)(=O)N1c1cc2c(cc1Cl)OCO2
VERAA (pA2): 6.0
//
sample.smiles: COc1cc(C2=C(C(=O)O)N(c3ccccc3C)S(=O)(=O)c3ccccc32)cc2c1OCO2
VERAA (pA2): 6.5

What measured VERAA (pA2) goes with CCCc1ccccc1N1C(C(=O)O)=C(c2ccc3c(c2)OCO3)c2ccccc2S1(=O)=O ? 5.8

====

experimental.target: recombinant human ETBR (HETB) (Homo sapiens)
Sequence (P24530 27-442): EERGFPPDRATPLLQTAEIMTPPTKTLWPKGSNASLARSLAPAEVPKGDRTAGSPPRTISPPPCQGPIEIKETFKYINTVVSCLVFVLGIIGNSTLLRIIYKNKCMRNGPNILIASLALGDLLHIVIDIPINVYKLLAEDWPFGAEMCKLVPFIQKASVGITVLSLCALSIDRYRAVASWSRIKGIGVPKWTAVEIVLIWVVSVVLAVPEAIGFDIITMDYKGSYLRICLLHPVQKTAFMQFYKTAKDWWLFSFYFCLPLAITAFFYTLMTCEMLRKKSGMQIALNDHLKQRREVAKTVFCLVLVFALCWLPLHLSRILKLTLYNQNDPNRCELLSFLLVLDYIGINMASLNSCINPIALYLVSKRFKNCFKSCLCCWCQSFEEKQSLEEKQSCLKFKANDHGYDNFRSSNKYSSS
experimental.details: Radioligand binding, [125I]ET-1 to membranes of CHOKI cells expressing recombinant human ETBR (HETB)
experimental.context: [125I]ET-1 binding, human ETB, CHOKI cell membranes
measured.property: IC50 (µM)

Example entries begin here.
compound: Cc1c(Cl)cccc1N1C(C(=O)O)=C(c2ccc3c(c2)OCO3)c2ccccc2S1(=O)=O
IC50, µM: 17
//
compound: O=C(O)C1=C(c2ccc3c(c2)OCO3)c2ccccc2S(=O)(=O)N1c1cccc(Cl)c1Cl
IC50, µM: 13
//
compound: COc1cc(C2=C(C(=O)O)N(c3ccccc3Cc3ccccc3)S(=O)(=O)c3ccccc32)cc2c1OCO2
IC50, µM: 2
//
compound: COc1cc(OC)cc(C2=C(C(=O)O)N(c3ccccc3Cl)S(=O)(=O)c3ccccc32)c1
IC50, µM: 7.3
//
compound: O=C(O)C1=C(c2ccc3c(c2)OCO3)c2ccccc2S(=O)(=O)N1c1ccccc1C(F)(F)F
IC50, µM: 11
//
compound: COc1cc(C2=C(C(=O)O)N(c3ccccc3C)S(=O)(=O)c3ccccc32)cc2c1OCO2
IC50, µM: 3.9

(A) O=C(O)C1=C(c2ccc3c(c2)OCO3)c2ccccc2S(=O)(=O)N1c1ccccc1-n1cccc1
(B) O=C(O)C1=C(c2ccc3c(c2)OCO3)c2ccccc2S(=O)(=O)N1c1ccc(Cl)cc1Cl
Among A and B , which shows a numerically higher IC50 result? Reply briefly: the label of your chosen item. A

(1) COc1cc(C2=C(C(=O)O)N(c3ccccc3Cl)S(=O)(=O)c3ccccc32)cc2c1OCO2
(2) CC(C)c1ccccc1N1C(C(=O)O)=C(c2ccc3c(c2)OCO3)c2ccccc2S1(=O)=O
Please indicate which item has the smaller measured IC50: 1 versus 2 Reply briefly: the label of your chosen item. 1

====

experimental.details: Pharmacokinetics in dog
experimental.context: in vivo, oral
Structures can show the parent of a compound that is named as a salt.
measured.property: bioavailability (%)
# output: bare number, implied unit %

What measured bioavailability goes with CCc1cc(C2=C(C(=O)O)N(c3ccccc3C(F)(F)F)S(=O)(=O)c3ccccc32)cc2c1OCO2 [Example 10, sodium salt] ? 100

====

experimental.target: recombinant human ETAR (HETA) (Homo sapiens)
Construct: expressed in transfected cells; host or cells: Ltk- cells (membrane preparation)
Sequence (P25101 21-427): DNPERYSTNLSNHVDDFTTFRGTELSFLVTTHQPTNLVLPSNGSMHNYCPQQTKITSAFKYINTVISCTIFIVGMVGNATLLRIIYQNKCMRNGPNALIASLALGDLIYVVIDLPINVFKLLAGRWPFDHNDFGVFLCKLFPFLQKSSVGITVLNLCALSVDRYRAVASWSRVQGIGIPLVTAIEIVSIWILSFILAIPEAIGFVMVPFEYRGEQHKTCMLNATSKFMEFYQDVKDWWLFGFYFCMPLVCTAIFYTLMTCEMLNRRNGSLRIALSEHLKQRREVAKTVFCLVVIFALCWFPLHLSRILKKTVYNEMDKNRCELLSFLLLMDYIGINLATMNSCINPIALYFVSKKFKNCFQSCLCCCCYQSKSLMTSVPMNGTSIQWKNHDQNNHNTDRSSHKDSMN
experimental.details: Radioligand binding, [125I]ET-1 to membranes of Ltk- cells expressing recombinant human ETAR (HETA)
experimental.context: read-out: IC50 of ET-1 binding to human ETA receptors
Where a name gives a salt, the structure may show the parent alone.
measured.property: IC50 (nM)
# output: bare number, implied unit nM

What measured IC50 goes with CCc1cc(C2=C(C(=O)O)N(c3ccccc3C(F)(F)F)S(=O)(=O)c3ccccc32)cc2c1OCO2 [Example 10, sodium salt] ? 0.6
